Source of measurements: patent EP4759815A1

# Measurement target: recombinant human PARP2 protein (Homo sapiens, UniProt Q9UGN5)
# Construct: purchased BPS 80502
# Sequence (Q9UGN5 whole entry): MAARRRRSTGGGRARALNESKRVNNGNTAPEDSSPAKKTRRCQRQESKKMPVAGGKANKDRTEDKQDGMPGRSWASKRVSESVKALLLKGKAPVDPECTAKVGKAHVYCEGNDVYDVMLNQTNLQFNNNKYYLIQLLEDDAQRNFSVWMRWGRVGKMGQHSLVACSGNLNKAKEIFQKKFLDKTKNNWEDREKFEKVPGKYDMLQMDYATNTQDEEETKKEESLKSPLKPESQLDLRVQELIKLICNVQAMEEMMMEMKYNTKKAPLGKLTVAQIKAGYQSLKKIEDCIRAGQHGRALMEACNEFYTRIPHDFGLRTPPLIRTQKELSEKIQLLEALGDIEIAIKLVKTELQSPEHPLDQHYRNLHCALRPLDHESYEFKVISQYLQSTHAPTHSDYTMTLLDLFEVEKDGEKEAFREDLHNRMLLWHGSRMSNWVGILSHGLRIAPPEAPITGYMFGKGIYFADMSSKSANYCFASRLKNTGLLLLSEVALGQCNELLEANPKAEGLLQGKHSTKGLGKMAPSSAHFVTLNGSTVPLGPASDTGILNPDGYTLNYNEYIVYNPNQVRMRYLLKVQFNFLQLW
# Measurement notes: PARP2 inhibitory activity (histone substrate, chemiluminescent ELISA)
# Type: biochemical
# Applied conditions: histone substrate; read-out: PARP2 IC50
Quantity measured: IC50 (nM)
Quick reminder: number only, in nM, skip the unit.

Illustrative cases are given below, each with its answer.
Molecule: CNC(=O)c1ccc(N2CCN(Cc3cc4c5c(cnn5c3)N(C)C(=O)N4)CC2)c(C)n1 [Compound 19]
Measurement target: recombinant human PARP2 protein (Homo sapiens, UniProt Q9UGN5)
U: nM
IC50: 732
--
Molecule: CNC(=O)c1ccc(N2CCN(Cc3cc4c5c(c(C(F)(F)F)nn5c3)N(C)C(=O)N4)CC2)c(C)n1 [Compound 58]
Measurement target: recombinant human PARP2 protein (Homo sapiens, UniProt Q9UGN5)
U: nM
IC50: 204

Request: Which measured IC50 belongs to CCN1C(=O)Nc2cc(CN3CCN(c4ccc(C(=O)NC)nc4C)CC3)cn3ncc1c23 [Compound 30] , tested on recombinant human PARP2 protein (Homo sapiens, UniProt Q9UGN5)?
Response: 211

Request: Which measured IC50 belongs to CNC(=O)c1ccc(N2CCN(Cc3cc4c5c(cnn5C5(CC5)C(=O)N4)c3)CC2)c(F)n1 [Compound 37] , tested on recombinant human PARP2 protein (Homo sapiens, UniProt Q9UGN5)?
Response: 8.7
